The reported numbers originate from the supplement of paper PMC8253809.

system: HNSC; assay: growth inhibition (% activity, log2 RLU normalised to DMSO / staurosporine); higher = more growth inhibition; conditions: 33 µM
measured.endpoint: growth inhibition
Please report the result as a number followed by the unit.

molecule	growth inhibition
CC(/C=C1\SC(=S)N(CC(=O)O)C1=O)=C\c1ccccc1	-2.25%
COC(=O)C1=CO[C@@H](O[C@@H]2O[C@H](CO)[C@@H](O)[C@H](O)[C@H]2O)[C@@H]2C(CO)=CC[C@H]12	-2.11%
COc1ccc(Cl)cc1C(=O)NCCc1ccc(S(=O)(=O)NC(=O)NC2CCCCC2)cc1	2.28%
Nc1nc2n[nH]nc2c(=O)[nH]1	56.2%
O=C1c2c(O)ccc(O)c2C(=O)c2c(NCCNCCO)ccc(NCCNCCO)c21	62.7%
Cc1ccnc(NS(=O)(=O)c2ccc(N)cc2)n1	-0.552%
O=C(O[C@H]1CN2CCC1CC2)N1CCc2ccccc2[C@@H]1c1ccccc1	-0.949%
CC(=O)Oc1cc(C(F)(F)F)ccc1C(=O)O	-4.31%
O=C(NC(Cc1cc(=O)[nH]c2ccccc12)C(=O)O)c1ccc(Cl)cc1 (stereo not given)	-1.11%
CCCOc1ccc2[nH]c(NC(=O)OC)nc2c1	66.6%

Would you kindly look at the next entry?
Look up growth inhibition for this molecule: CC[C@H](C)C(=O)O[C@H]1C[C@H](O)C=C2C=C[C@H](C)[C@H](CC[C@@H](O)C[C@@H](O)CC(=O)O)[C@H]21
17.3%

----------
tested on: SUDIPGXIII (diffuse intrinsic pontine glioma line); test: growth inhibition (% activity, log2 RLU normalised to DMSO / staurosporine); higher = more growth inhibition; settings: 33 µM
measured.endpoint: growth inhibition
Please report the result as a number followed by the unit.

Look up growth inhibition for this compound: C=C1CCC(O)CC1=CC=C1CCCC2(C)C1CCC2C(C)CCCC(C)(C)O (configuration not stated)
-0.781%

----------
As shown below, each of these molecules has a reported growth inhibition value.
system: HGGX39 (paediatric high-grade glioma line); test: growth inhibition (% activity, log2 RLU normalised to DMSO / staurosporine); higher = more growth inhibition; conditions: 33 µM
Respond numerically; units are % and should not be typed.

molecule	growth inhibition, %
C[C@](N)(Cc1ccc(O)c(O)c1)C(=O)O	-1.35
Cn1cnc([N+](=O)[O-])c1Sc1ncnc2[nH]cnc12	18.2
CC(C)(OCc1nn(Cc2ccccc2)c2ccccc12)C(=O)O	-3.82
N=C(N)c1ccc2cc(OC(=O)c3ccc(N=C(N)N)cc3)ccc2c1	-0.167
CN1CCC[C@H]1c1cccnc1	2.08
Nc1nc(=O)[nH]cc1F	1.88
Cc1onc(-c2c(Cl)cccc2Cl)c1C(=O)N[C@@H]1C(=O)N2[C@@H]1SC(C)(C)[C@@H]2C(=O)O	2.25
c1ccc2c(c1)CCCC2C1=NCCN1 (stereo unspecified)	2.48

Look up growth inhibition for this molecule: CN1C2CCCC1CC(NC(=O)c1nn(C)c3ccccc13)C2 (stereo unspecified)
1.66

Look up growth inhibition for this molecule: O=C(O)c1cccnc1Nc1cccc(C(F)(F)F)c1
1.81

Look up growth inhibition for this molecule: OCCOCCN1CCN(C(c2ccccc2)c2ccc(Cl)cc2)CC1 (stereo unspecified)
2.86

Look up growth inhibition for this molecule: COc1ccc(/C=C/C(=O)Nc2ccccc2C(=O)O)cc1OC
-0.29

Look up growth inhibition for this molecule: CN(C)CCOC(C)(c1ccccc1)c1ccccn1 (stereo unspecified)
0.245
